target: Pro-neuregulin-1, membrane-bound isoform (Homo sapiens) (UniProt Q02297); test: small molecules binding neuregulin-1 protein – biochemical, small-molecule microarray, fluorescence 635/667, psychiatric disease protein project, primary screen (AID 1075); conditions: NRG1 binding, 635 nm fluorescence, higher = more signal;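 also: score combines 667 nm spot fluorescence with signal to noise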
Sequence (Q02297 whole entry, looked up, canonical isoform): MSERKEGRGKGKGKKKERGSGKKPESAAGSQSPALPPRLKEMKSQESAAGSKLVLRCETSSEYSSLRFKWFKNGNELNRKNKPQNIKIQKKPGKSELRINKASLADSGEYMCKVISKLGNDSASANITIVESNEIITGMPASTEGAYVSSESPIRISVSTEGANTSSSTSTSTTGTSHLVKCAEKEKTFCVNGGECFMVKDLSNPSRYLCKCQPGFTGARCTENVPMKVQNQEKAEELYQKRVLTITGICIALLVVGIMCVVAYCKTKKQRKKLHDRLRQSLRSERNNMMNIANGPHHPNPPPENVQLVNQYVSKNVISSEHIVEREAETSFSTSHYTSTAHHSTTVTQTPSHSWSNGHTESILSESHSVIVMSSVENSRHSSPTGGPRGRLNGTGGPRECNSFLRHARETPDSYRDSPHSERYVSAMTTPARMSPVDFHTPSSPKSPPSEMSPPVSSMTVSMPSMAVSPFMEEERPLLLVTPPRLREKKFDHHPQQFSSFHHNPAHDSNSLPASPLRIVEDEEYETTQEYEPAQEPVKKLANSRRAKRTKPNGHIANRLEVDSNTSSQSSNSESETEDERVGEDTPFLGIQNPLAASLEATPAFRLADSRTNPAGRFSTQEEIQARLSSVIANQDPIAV
So basically: composite z-score at 1 or higher? That is yes. Lower than 1? That is no.

compound	assignedLabel
CC(C)NC(=O)[C@@]1(c2ccc([N+](=O)[O-])cc2)CC(=O)N(CC23CC4CC(CC(C4)C2)C3)[C@@H]1c1ccc(CO)cc1	yes
COc1ccc(C(=O)Nc2ccc(CN3C(=O)[C@@]4(O[C@@H](CCn5cc(CCO)nn5)[C@H]([Si](C)(C)c5ccc(OC)cc5)[C@H]4C)c4ccccc43)cc2)cc1	no
O=C(N1CCOCC1)[C@@]1(Cc2ccccc2)COC(c2ccc(OCCCO)cc2)=N1	yes
COC(=O)[C@@]1(Cc2ccc(OC)cc2)[C@H]2c3cc(C(=O)N4CCCC4)n(Cc4ccc(C(F)(F)F)nc4)c3C[C@H]2CN1C(=O)c1ccccc1	yes
O=C(NCC(O)CO)C1N=C(c2ccc(OCCCO)cc2)N(c2ccccc2)O1 (stereo not drawn)	no
CN(C)CCCNC(=O)[C@@]1(Cc2ccccc2I)c2ccccc2C(=O)N(C2CCCCC2)[C@H]1c1ccc(CO)cc1	no
COc1cc(C(O)C2C=CC3C(=O)N(c4ccccc4)C(=O)C3N2Nc2ccccc2)cc(OC)c1OC (stereo not drawn)	yes
C=CCNC(=O)[C@H]1[C@@H]2C(=O)O[C@@H](c3ccccc3)[C@@H](c3ccccc3)N2[C@@H](c2ccccc2OCCO)[C@]12C(=O)N(C(=O)OCCOC)c1ccc(C#Cc3ccc(OC)cc3)cc12	yes
C=CCNC(=O)[C@@H]1[C@H]2C(=O)O[C@H](c3ccccc3)[C@H](c3ccccc3)N2[C@H](c2ccc(OCCO)cc2)[C@@]12C(=O)Nc1ccc(C#CC3(O)CCCCCC3)cc12	yes
CC(C)=CCCC(C)=CC(O)C1C=CC2C(=O)NC(=O)C2N1Nc1ccc(Cl)cc1Cl (stereo not drawn)	yes
C[C@@H]1NC(=O)C([C@@H](C)OCc2ccccc2)NC(=O)[C@@]23C(=O)N[C@@H](Cc4ccccc4)C2[C@H](C)[C@@]2(C)O[C@H]2C3/C=C/C/C=C\CNC1=O (stereo partly drawn)	no
N#Cc1ccc(-c2cccc(=O)o2)cc1	no
C=CCC(OC(C)=O)[C@@H]1[C@@H](N(Cc2cc3ccccc3o2)C(=O)c2cccc3ccccc23)c2cc(OCCCO)ccc2N1C(=O)c1ccc2ccccc2n1 (stereo partly drawn)	no
CC1CC/C=C\[C@H]2OC34C=CCN(c5ccc(Cl)cc5)C(=O)[C@H]3N(CCCCCCO)C(=O)[C@]4(C)C2C(=O)O1 (stereo partly drawn)	no
CC(=O)OCC1C2CC[C@H]3C(OCc4ccc(F)cc4C(F)(F)F)OC[C@]4(C)[C@H]3C2=C(CN4C(=O)OC(C)(C)C)[C@H](C)C1COC(C)=O (stereo partly drawn)	no
CC1CC/C=C\[C@H]2OC34C=CCN(C(C)(C)C)C(=O)[C@H]3N(CCCO)C(=O)[C@@H]4C2C(=O)O1 (stereo partly drawn)	no
NCCCCCCNC(=O)[C@@H]1C[C@@H]2C(=O)N3CCC[C@H]3C(=O)N2[C@@H]1c1cccc(OCCO)c1	yes
CC1CC/C=C\[C@H]2OC34C=CCN(c5ccc6ccccc6c5)C(=O)[C@H]3N(C(C)CO)C(=O)[C@@H]4C2C(=O)O1 (stereo partly drawn)	no
CCCCCCc1nc(Cc2cc(OC)c(OC)c(OC)c2)cc2c1[Si](C(C)C)(C(C)C)O[C@H]2c1ccccc1	no
COCCn1c(C(=O)N(C)C)cc2c1C[C@H]1CN(C(=O)c3ccccc3)[C@@](Cc3ccc(OC)cc3)(C(=O)OC)[C@@H]21	yes
CCCCN1CC=CC23O[C@@H]4/C=C\CCCOC(=O)C4[C@H]2C(=O)N(C(CO)C(C)C)[C@@H]3C1=O (stereo partly drawn)	no
COCCOC(=O)N1C(=O)[C@@]2(c3ccccc31)[C@H](c1ccc(O)cc1)N1[C@H](c3ccccc3)[C@H](c3ccccc3)OC(=O)[C@H]1[C@@H]2C(=O)N1CCCCCCC1	yes
C=CCC(OC(C)=O)[C@@H]1[C@@H](N(Cc2cccc3ccccc23)C(=O)Cc2ccc(OC)cc2)c2cc(OCCCO)ccc2N1C(=O)Cc1ccc2ccccc2c1 (stereo partly drawn)	no
COCCCNC(=O)[C@@]1(CCC(=O)OC(C)(C)C)COC(c2ccc(OCCCO)cc2)=N1	yes
C[C@@H]1ON(c2ccc(I)cc2)[C@H](c2cccc(NC(=O)OCC3c4ccccc4-c4ccccc43)c2)[C@H]1C(=O)N1C(=O)OC[C@H]1Cc1ccccc1	no
COC(=O)[C@@]1(Cc2ccccc2)[C@H]2c3cc(C(=O)N(C)C)n(CCO)c3C[C@H]2CN1C(=O)c1ccccc1	yes

* * *

target: E3 ubiquitin-protein ligase XIAP (Homo sapiens) (UniProt P98170); assay: small molecules binding XIAP protein – biophysical, small-molecule microarray, fluorescence 635 nm, primary screen (AID 1181); details: higher = more signal;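 also: score merges 667 nm emission and signal to noise over triplicate slides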
Sequence (P98170 whole entry, looked up): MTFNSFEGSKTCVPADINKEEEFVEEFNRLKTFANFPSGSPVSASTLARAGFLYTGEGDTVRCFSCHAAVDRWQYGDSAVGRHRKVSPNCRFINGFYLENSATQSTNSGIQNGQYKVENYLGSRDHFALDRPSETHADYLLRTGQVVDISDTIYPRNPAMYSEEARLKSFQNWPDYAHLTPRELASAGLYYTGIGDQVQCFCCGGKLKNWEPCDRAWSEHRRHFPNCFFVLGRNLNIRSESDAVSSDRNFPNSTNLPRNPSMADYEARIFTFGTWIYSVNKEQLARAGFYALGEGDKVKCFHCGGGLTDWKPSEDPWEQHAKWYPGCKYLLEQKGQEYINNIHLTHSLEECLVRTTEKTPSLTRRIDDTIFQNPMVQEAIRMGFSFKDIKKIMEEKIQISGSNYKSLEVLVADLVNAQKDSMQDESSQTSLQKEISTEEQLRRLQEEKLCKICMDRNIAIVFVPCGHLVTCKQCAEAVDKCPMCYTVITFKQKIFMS
So basically: composite z-score at 0.1 or higher? That is yes. Lower than 0.1? That is no.

compound	assaySystem	assignedLabel
CC(C)N1C(=O)c2ccccc2[C@@H](C(=O)NCC(F)(F)F)[C@@H]1c1ccc(CO)cc1	E3 ubiquitin-protein ligase XIAP (Homo sapiens) (UniProt P98170)	no
COC(=O)c1cccc([C@H]2OC(=CC(=O)OC(C)C)C[C@@H](c3cccc(C(=O)OC)c3)O2)c1	E3 ubiquitin-protein ligase XIAP (Homo sapiens) (UniProt P98170)	yes
CC1CC/C=C\[C@H]2OC34C=CCN(c5ccc(Cl)cc5)C(=O)[C@H]3N(CCCCCCO)C(=O)[C@]4(C)C2C(=O)O1 (some centres not stated)	E3 ubiquitin-protein ligase XIAP (Homo sapiens) (UniProt P98170)	yes
COC(=O)C(CC#Cc1ccc2c(c1)[C@]1(C(=O)N2)[C@H](c2ccccc2OCCO)N2[C@H](c3ccccc3)[C@H](c3ccccc3)OC(=O)[C@H]2[C@@H]1C(=O)N1CCc2cc(OC)c(OC)cc2C1)C(=O)OC	E3 ubiquitin-protein ligase XIAP (Homo sapiens) (UniProt P98170)	yes
C=C(C)[C@@H]1CC=C(C(O)C2C=CC3C(=O)N(c4ccccc4)C(=O)C3N2Nc2ccc([N+](=O)[O-])cc2)CC1 (some centres not stated)	E3 ubiquitin-protein ligase XIAP (Homo sapiens) (UniProt P98170)	no
COC(=O)C1(Cc2ccccc2)C=C2C(=C(C)C(=O)C2C)CN1 (configuration not stated)	E3 ubiquitin-protein ligase XIAP (Homo sapiens) (UniProt P98170)	no
O=C1[C@H]2C=C(I)[C@H](C[C@@H]2OCCCCCCO)[C@@]12CO2	E3 ubiquitin-protein ligase XIAP (Homo sapiens) (UniProt P98170)	no

* * *

assay: small molecules captured by biotinylated probe aFGF10 – biochemical, small-molecule microarray, fluorescence 635/667, stem cell growth factor project, primary screen (AID 1071); settings: higher = more signal;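 also: score merges 667 nm spot intensity and signal to noise from triplicate slides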
Some molecules, each annotated with its measured composite z-score.
reportedMetric: composite z-score

molecule	reportedMetric	obsValue
C=CCNC(=O)[C@H]1[C@@H]2C(=O)O[C@@H](c3ccccc3)[C@@H](c3ccccc3)N2[C@@H](c2ccc(OCCO)cc2)[C@]12C(=O)Nc1ccc(C#CC3(O)CCCCCC3)cc12	composite z-score	1.1
O=C(NC1CC1)[C@@H]1c2ccccc2C(=O)N(CC23CC4CC(CC(C4)C2)C3)[C@H]1c1ccc(CO)cc1	composite z-score	0.581
CN1C(=O)C2C=CC(C(O)c3ccc(-c4ccccc4)s3)N(NC(=O)OC(C)(C)C)C2C1=O (centres undefined)	composite z-score	0.419
CCOC(=O)C[C@H]1[C@H](OC(=O)c2ccccc2-c2ccccc2)[C@@H](NC(=O)c2ccc3ccccc3c2)c2cc(OCCCO)ccc2N1C(=O)Cc1ccc(OC)cc1	composite z-score	0.162
COCCOC(=O)N1C(=O)[C@@]2(c3cc(C#CCCO)ccc31)[C@H](c1ccc(OCCO)cc1)N1[C@H](c3ccccc3)[C@H](c3ccccc3)OC(=O)[C@H]1[C@@H]2C(=O)N1CCCCCCC1	composite z-score	1.08
C=C(COC)/C(=C/C[C@@H](OC(C)=O)c1ccccc1OCCO)c1cnc2ccccc2c1	composite z-score	0.339
COCCOC(=O)N1C(=O)[C@@]2(c3ccccc31)[C@H](c1ccc(O)cc1)N1[C@H](c3ccccc3)[C@H](c3ccccc3)OC(=O)[C@H]1[C@@H]2C(=O)N1CCCCCCC1	composite z-score	0.802
CC(C)c1nc2cc(Br)ccc2c(=O)o1	composite z-score	0.58
COc1ccc([Si](C)(C)[C@H]2[C@H](CC(=O)N3Cc4ccccc4C[C@H]3CO)O[C@@]3(C(=O)N(C)c4c(Br)cc(C)cc43)[C@@H]2C)cc1	composite z-score	0.333
CN(C)CCCNC(=O)[C@@H]1c2ccccc2C(=O)N(Cc2ccccc2C(F)(F)F)[C@H]1c1ccc(CO)cc1	composite z-score	-0.702
COCCOC(=O)N1C(=O)[C@@]2(c3cc(C#CCC(C(=O)OC)C(=O)OC)ccc31)[C@H](C(=O)Nc1nc3ccccc3s1)[C@H]1C(=O)O[C@H](c3ccccc3)[C@H](c3ccccc3)N1[C@@H]2c1ccc(O)cc1	composite z-score	0.742
N#Cc1ccc(C(O)C2C=CC3C(=O)NC(=O)C3N2Nc2ccc(Cl)cc2Cl)cc1 (centres undefined)	composite z-score	0.116
C=CCNC(=O)[C@H]1[C@@H]2C(=O)O[C@@H](c3ccccc3)[C@@H](c3ccccc3)N2[C@@H](c2ccc(OCCO)cc2)[C@]12C(=O)Nc1ccccc12	composite z-score	0.331
O=C1[C@H]2C=C(I)[C@H](C[C@@H]2OCCCCCCO)[C@@]12CO2	composite z-score	0.0956
COC(=O)[C@H](Cc1ccccc1)N1CC2=CCCC=C[C@@H]2[C@H]1[C@H](O)Cc1ccccc1	composite z-score	0.311
O=C1C=C(c2ccccc2)C(=O)C2=C1CC([C@H]1Oc3ccccc3S(=O)(=O)N3CCC[C@@H]13)=CC2	composite z-score	-0.0024
CO[C@H]1O[C@H](CO)[C@@H](OC(=O)Nc2ccccc2)[C@H](OC(=O)Nc2ccccc2)[C@H]1OC(=O)Nc1ccccc1	composite z-score	1.17
CCOC(=O)C[C@H]1[C@H](OC(=O)c2ccccc2-c2ccccc2)[C@@H](NC(=O)C2CCCCC2)c2cc(OCCCO)ccc2N1C(=O)c1ccc2ccccc2n1	composite z-score	0.53
CC(C)NC(=O)[C@@H]1c2ccccc2C(=O)N(Cc2ccc(OC(F)(F)F)cc2)[C@H]1c1ccc(CO)cc1	composite z-score	0.625
NC(=O)N1C(=O)C2C(C1=O)C1C=C(CCCO)C2C(c2ccc(CN3CCCC3)cc2)N1Cc1sc2ccccc2c1Cl (centres undefined)	composite z-score	0.0718
CCCNC(=O)[C@@]1(Sc2ccc(C)cc2)CC(=O)N(Cc2ccccc2Cl)[C@@H]1c1ccc(CO)cc1I	composite z-score	-0.391
CCCC#C[Si](O[C@H](CC)c1cn(Cc2ccccc2)nn1)(C(C)C)C(C)C	composite z-score	0.435
CCCCCCc1nc(-c2ccc(-c3ccc(Cl)c(Cl)c3)o2)cc2c1[Si](C(C)C)(C(C)C)OC2	composite z-score	-0.632
C=CCN1Cc2ccccc2[C@H]2OC(c3ccc(OCCCO)cc3)=N[C@@]2(CCS(=O)(=O)c2ccccc2)C1=O	composite z-score	0.201
CN1C(=O)[C@@H]2[C@@H](CC(COc3ccccc3)=C3[C@@H](CCc4ccccc4)OB(O)C[C@@H]32)C1=O	composite z-score	0.121
NCCCCCCNC(=O)[C@@H]1C[C@@H]2C(=O)N3CCC[C@H]3C(=O)N2[C@@H]1c1cccc(OCCO)c1	composite z-score	0.361
CN1C(=O)C2C(C1=O)C1C=C(CCCO)C2C(C2CC2)N1Cc1cccc(OC(F)(F)F)c1 (centres undefined)	composite z-score	-0.203
CC(C)NC(=O)[C@@]1(C)c2ccccc2C(=O)N(Cc2ccccc2)[C@H]1c1ccc(CO)cc1	composite z-score	-0.548
COC(=O)[C@H](Cc1ccc(O)cc1)N[C@@H](/C=C/C1CC1)[C@H](O)Cc1ccccc1	composite z-score	0.154

The measurements presented in this section are drawn from PubChem BioAssay.
